Provide the recorded pIC50 for the entries that follow.
# target.or.test.system: T1, human IL-4 (human, UniProt P05112 25-153, biotinylated in the receptor binding assay and on the Biacore chip)
# T1 construct: also called interleukin-4; biotinylated IL-4
# T1 sequence (looked up): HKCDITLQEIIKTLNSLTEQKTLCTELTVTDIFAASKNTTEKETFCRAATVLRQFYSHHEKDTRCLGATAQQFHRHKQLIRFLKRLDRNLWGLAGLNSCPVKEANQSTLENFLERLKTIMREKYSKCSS
# assay.procedure: IL-4 RBA: ELISA, IL-4R/Fc coated, biotinylated IL-4
Answers are plain numbers, as −log10 of the molar value.

Take a look at these entries with their results.
# binder, pIC50
rows = [
    ("DOM9-112-210 (other, VH dAb) VH: EVQLLESGGGLVQPGGSLRLSCAASGFTFRNFGMGWVRQAPGKGLEWVSWIISSGTETYYADSVKGRFTISRDNSKNTLYLQMNSLRAEDTAVYYCAKSLGRFDYWGQGTLVTVSS", 9.84),
    ("DOM9-155 (other, Vk dAb) VL: DIQMTQSPSSLSASVGDRVTITCRASLDIGDWLHWYQQKPGKAPKLLIGWGSGLQSGVPSRFSGSGSGTDFTLTISSLQPEDFATYYCLQEGLGPPTFGQGTKVEIKR", 7.00),
    ("DOM9-112 (other, VH dAb) VH: EVQLLESGGGLVQPGGSLRLSCAASGFTFRNYGMAWVRQAPGKGLEWVSWIDASGTETYYADSVKGRFTISRDNSKNTLYLQMNSLRAEDTAVYYCAKSLGRFDYWGQGTLVTVSS", 8.52),
]

### Prompt Name the recorded pIC50 for DOM9-44 (other, Vk dAb) VL: DIQMTQSPSSLSASVGDRVTITCRASQNINFWLRWYQQKPGKAPTLLIYDASALQSGVPSRFSGSGSGTDFTLTISSLQPEDFATYYCQQDFNPPYTFGQGTKVEIKR .
### Response 6.91
